system: Pancreatic Ductal Adenocarcinoma #03 (Panc 03); experiment: Murine antitumor activity versus Pancreatic Ductal Adenocarcinoma #03; assay type: in vivo; conditions: versus Panc 03; intravenous; T/C <42% considered significant
Counter-ions that a name gives are not always drawn.
Item-by-item account of % T/C (tumor growth inhibition)
Give the quantity in %, number only.

Example entries and their recorded answers appear below.
molecule	% T/C (tumor growth inhibition) (%)
COc1cc(NS(C)(=O)=O)ccc1Nc1c2ccccc2nc2ccccc12 [mAMSA, reference compound]	0
CCN(CC)CCn1nc2c3c(c(CNC(=O)OC)ccc31)Sc1ccccc1-2	0
CCN(CC)CCNc1ccc(CN(C)S(C)(=O)=O)c2sc3ccccc3c(=O)c12 [WIN33377, reference compound]	0

I am curious: what % T/C (tumor growth inhibition) value has been reported for CCN(CC)CCn1nc2c3c(c(CNC)ccc31)Sc1ccccc1-2 [Ex 10, dihydrochloride hydrate] ?
0

I am curious: what % T/C (tumor growth inhibition) value has been reported for CCN(CC)CCn1nc2c3c(c(CNC=O)ccc31)Sc1ccc(OC)cc1-2 ?
0

I am curious: what % T/C (tumor growth inhibition) value has been reported for CCN(CC)CCn1nc2c3c(c(CNC=O)ccc31)Sc1ccccc1-2 ?
0

I am curious: what % T/C (tumor growth inhibition) value has been reported for CCN(CC)CCn1nc2c3c(c(CNS(C)(=O)=O)ccc31)Sc1ccc(OC)cc1-2 ?
0

I am curious: what % T/C (tumor growth inhibition) value has been reported for CCN(CC)CCn1nc2c3c(c(CNS(C)(=O)=O)ccc31)Sc1ccccc1-2 ?
0

====

tested on: P388 mouse leukemia cells; experiment: In vitro cytotoxicity: clonogenic survival in soft agar; assay type: cell-based; conditions: P388, 1 hour transient exposure, 50% reduction of clonogenic survival in soft agar, read-out: in vitro cytox IC50
Where a name gives a salt, the structure may show the parent alone.
Item-by-item account of pIC50
The quantity pIC50 is defined as the negative base-10 logarithm of the molar concentration.

molecule	pIC50
CCN(CC)CCn1nc2c3c(c(CNS(C)(=O)=O)ccc31)Sc1ccccc1-2	6.30
CCN(CC)CCn1nc2c3c(c(CNC(=O)OC)ccc31)Sc1ccccc1-2	6.30
CCN(CC)CCn1nc2c3c(c(CNS(C)(=O)=O)ccc31)Sc1ccc(O)cc1-2	8.36
CCN(CC)CCn1nc2c3c(c(CNC=O)ccc31)Sc1ccccc1-2	6.48
CCN(CC)CCn1nc2c3c(c(CNC(=O)OC)ccc31)Sc1ccc(OC)cc1-2	4.35

// lookup pIC50 | system=P388 mouse leukemia cells | key= CCN(CC)CCn1nc2c3c(c(CNS(C)(=O)=O)ccc31)Sc1ccc(OC)cc1-2
4.52

// lookup pIC50 | system=P388 mouse leukemia cells | key= CCN(CC)CCn1nc2c3c(c(CN)ccc31)Sc1ccc(OC)cc1-2
4.89

// lookup pIC50 | system=P388 mouse leukemia cells | key= CCN(CC)CCn1nc2c3c(c(CNC)ccc31)Sc1ccccc1-2 [Ex 10, dihydrochloride hydrate]
4.80

// lookup pIC50 | system=P388 mouse leukemia cells | key= CCN(CC)CCn1nc2c3c(c(CNC(=O)OC)ccc31)Sc1ccc(O)cc1-2
7.96

// lookup pIC50 | system=P388 mouse leukemia cells | key= CCN(CC)CCNc1ccc(CN(C)S(C)(=O)=O)c2sc3ccccc3c(=O)c12 [WIN33377, reference compound]
6.52

// lookup pIC50 | system=P388 mouse leukemia cells | key= CCN(CC)CCn1nc2c3c(c(CN)ccc31)Sc1ccccc1-2
5.24

// lookup pIC50 | system=P388 mouse leukemia cells | key= CCN(CC)CCn1nc2c3c(c(CNC=O)ccc31)Sc1ccc(OC)cc1-2
4.26
